The following variants are shown together with reported abundance fitness values.
B1: POU domain, class 3, transcription factor 3, residues 320 to 388; numbered along this chain, P20264 (parent)
chain: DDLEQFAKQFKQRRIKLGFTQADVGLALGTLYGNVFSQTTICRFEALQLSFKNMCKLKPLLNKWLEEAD

variants of: B1; experiment: abundance fitness (aPCA) (normalised: wild type 0, dead -1); higher = more abundant; growth selection in yeast, the domain comes from the species named; settings: Homo sapiens
// return a plain number; no unit text

As a guide, the following entries are already answered.
{"columns": ["VARIANT STRING", "abundance fitness"],
 "data": [
  ["N34L", -0.468],
  ["L28W", -0.981],
  ["T40V", -0.174]
]}

The variant `L31P` showed abundance fitness equal to -0.551

abundance fitness reported for this variant `G33H` : -0.753

`S37Y` yielded abundance fitness of -0.725

Documented abundance fitness of `C42S` : -0.14

Notebook: `N34T` , abundance fitness read as -0.098

Notebook: `T39L` , abundance fitness read as -0.195

get_value(item= `T39H` , readout=abundance fitness) returns 0.074

The reported value for `F36K` in terms of abundance fitness is -0.364

Item: `F36Q` | abundance fitness: -0.214

Reported abundance fitness of `L26R` : 0.128

Per the records, this variant ( `L31G` ) has abundance fitness equal to -0.565

The value of abundance fitness measured for the variant `T39W` turned out to be -0.846
